Attribution: PubChem BioAssay (NCI)

# Test system: HL-60(TB) leukemia
# Experiment: NCI tumour cell line growth inhibition, 48 h

[
  {
    "Compound": "CC[C@H](C)[C@H]1NC(=O)[C@@H](NC(=O)[C@@H](CC(C)C)N(C)C(=O)C2CCCN2C(=O)[C@H](C)O)[C@@H](C)OC(=O)[C@H](Cc2ccccc2)N(C)C(=O)[C@@H]2CCCN2C(=O)[C@H](CC(C)C)NC(=O)[C@@H](C)C(=O)[C@H](C(C)C)OC(=O)C[C@@H]1O (stereo not given in full)",
    "Unit name": "µM",
    "Reading qualifier": ">",
    "TGI": 62.5
  },
  {
    "Compound": "Cc1cn(Cc2ccccc2CCl)c(=O)n(Cc2ccccc2CCl)c1=O",
    "Unit name": "µM",
    "Reading qualifier": "=",
    "TGI": 3.24
  },
  {
    "Compound": "NS(=O)(=O)c1ccc(NC(=O)c2cccc3c(Nc4ccc(S(N)(=O)=O)cc4)c4ccccc4nc23)cc1",
    "Unit name": "µM",
    "Reading qualifier": "=",
    "TGI": 96.8
  },
  {
    "Compound": "Nc1ccc(C2=Nc3ccccc3SC(c3ccccc3O)C2)cc1 (stereo not given)",
    "Unit name": "µM",
    "Reading qualifier": "=",
    "TGI": 62.7
  },
  {
    "Compound": "COc1ccc(C2C(Cl)C(=O)N2NC(=O)c2ccccc2O)cc1OC (stereo not given)",
    "Unit name": "µM",
    "Reading qualifier": ">",
    "TGI": 100
  },
  {
    "Compound": "Oc1ccc(O)c2c1C1(Cl)C(Cl)=C(Cl)C2(Cl)C1(Cl)Cl",
    "Unit name": "µM",
    "Reading qualifier": "=",
    "TGI": 12.1
  },
  {
    "Compound": "O=c1cc(-c2ccc(O)cc2)oc2cc(O)cc(O)c12",
    "Unit name": "µM",
    "Reading qualifier": ">",
    "TGI": 100
  },
  {
    "Compound": "CN(C)N=Nc1nn(C(=O)Nc2ccc(Cc3ccccc3)cc2)c2ccccc12",
    "Unit name": "µM",
    "Reading qualifier": ">",
    "TGI": 100
  },
  {
    "Compound": "CC1=C(C)C(=O)C(C2=C(C3=CC(=O)C(C)=C(C)C3=O)C(=O)c3ccccc3C2=O)=CC1=O",
    "Unit name": "µM",
    "Reading qualifier": "=",
    "TGI": 1.11
  },
  {
    "Compound": "CCOC(=O)c1cn(CC)c2cc3c(cc2c1=O)SCS3",
    "Unit name": "µM",
    "Reading qualifier": ">",
    "TGI": 100
  }
]

---

# Test system: SF-268 CNS
# Experiment: NCI tumour cell line growth inhibition, 48 h; in the data active = GI50 below about 0.43 µM; inactive = the rest
Outcomes: active, inactive

[
  {
    "Compound": "NS(=O)(=O)c1ccc(N2N=C(c3cccs3)CC2c2ccccc2O)cc1 (centres undefined)",
    "Tested target": "SF-268 CNS",
    "Class label": "inactive"
  },
  {
    "Compound": "Cn1ncnc1C1c2n[nH]c(=O)c3cc(F)cc(c23)NC1c1ccc(F)cc1 (centres undefined)",
    "Tested target": "SF-268 CNS",
    "Class label": "inactive"
  },
  {
    "Compound": "CCN(CC)CCC(=O)O[C@H]1CC[C@H](CC(C)[C@H]2CC(=O)C(C)C=C(C)[C@H](OC(=O)CCN(CC)CC)C(OC)C(=O)[C@@H](C)CC(C)/C=C/C=C/C=C(C)C(OC)CC3CC[C@H](C)[C@](O)(O3)C(=O)C(=O)N3CCCCC3C(=O)O2)CC1OC (some centres undefined)",
    "Tested target": "SF-268 CNS",
    "Class label": "inactive"
  },
  {
    "Compound": "CCc1c2c(nc3ccc(OCc4ccc(B5OC(C)(C)C(C)(C)O5)cc4)cc13)-c1cc3c(c(=O)n1C2)COC(=O)[C@]3(O)CC",
    "Tested target": "SF-268 CNS",
    "Class label": "active"
  }
]

---

# Test system: OVCAR-5 ovarian
# Experiment: NCI tumour cell line growth inhibition, 48 h
In this section we review reported TGI values for a set of compounds.

[
  {
    "Compound": "COc1ccccc1Cn1[nH]c(=O)c2cc([N+](=O)[O-])ccc21",
    "Tested target": "OVCAR-5 ovarian",
    "TGI": "> 100 µM"
  },
  {
    "Compound": "Cc1cc(C(O)CNC(C)CCn2cnc3c2c(=O)n(C)c(=O)n3C)ccc1O (stereo unspecified)",
    "Tested target": "OVCAR-5 ovarian",
    "TGI": "> 100 µM"
  },
  {
    "Compound": "CCOC(=O)/C=C1\\Oc2ccccc2C1(C)O (stereo unspecified)",
    "Tested target": "OVCAR-5 ovarian",
    "TGI": "> 100 µM"
  },
  {
    "Compound": "O=C1Nc2ccc(Br)cc2/C1=C/C(=O)c1ccccc1",
    "Tested target": "OVCAR-5 ovarian",
    "TGI": "53.6 µM"
  },
  {
    "Compound": "COc1ccc(N2C(=O)C3c4[nH]c5ccc(OCc6ccccc6)cc5c4C4CCC(C(C)C)CC4C3C2=O)cc1 (stereo unspecified)",
    "Tested target": "OVCAR-5 ovarian",
    "TGI": "> 100 µM"
  },
  {
    "Compound": "C=CCC1C2CCC(O[Si](C(C)C)(C(C)C)C(C)C)(C(C(=O)OC)C2)C1O (stereo unspecified)",
    "Tested target": "OVCAR-5 ovarian",
    "TGI": "> 100 µM"
  },
  {
    "Compound": "COc1ccc(/C=C(\\Cl)c2ccc(OC)cc2)cc1",
    "Tested target": "OVCAR-5 ovarian",
    "TGI": "> 100 µM"
  },
  {
    "Compound": "COC(=O)C1=C(O)C(C(=O)OC)[C@@]2(O)[C@@H](C(=O)OC)CC[C@@H]1[C@@H]2C(=O)OC (stereo partly specified)",
    "Tested target": "OVCAR-5 ovarian",
    "TGI": "70.2 µM"
  },
  {
    "Compound": "COc1nc(C)nc2c1ncn2Cc1ccccc1",
    "Tested target": "OVCAR-5 ovarian",
    "TGI": "> 100 µM"
  },
  {
    "Compound": "C#CC(O)Cc1ccc(OC)c2occc12 (stereo unspecified)",
    "Tested target": "OVCAR-5 ovarian",
    "TGI": "> 100 µM"
  },
  {
    "Compound": "CN(CCCN(C)CCC1CCCCC1)CCC1CCCCC1",
    "Tested target": "OVCAR-5 ovarian",
    "TGI": "10.7 µM"
  }
]

---

TGI reference
# Tested on: KM20L2 colon
# Experiment: NCI tumour cell line growth inhibition, 48 h

[
  {
    "Compound": "CC(=O)O[C@H]1CC[C@@]2(C)C(=C/C(=N\\[N+](=O)[O-])[C@H]3C4CCC([C@H](C)CCCC(C)C)[C@@]4(C)CCC32)C1 (stereo partly specified)",
    "TGI": "> 100 µM"
  },
  {
    "Compound": "CC(=O)O/N=C/c1cc2c(cc1Br)OCO2",
    "TGI": "> 349 µM"
  },
  {
    "Compound": "COc1cc(Cc2ccc3c(c2C#N)N(C)c2ccccc2S3)cc(OC)c1OC",
    "TGI": "> 100 µM"
  },
  {
    "Compound": "OC1c2ccccc2C2C(O)c3ccccc3C12 (stereo unspecified)",
    "TGI": "> 100 µM"
  },
  {
    "Compound": "O=C1/C(=C\\c2ccccc2)c2ccccc2N1/N=C\\c1ccccc1",
    "TGI": "> 100 µM"
  },
  {
    "Compound": "Cc1ccc(Nc2nc(C)c(C(/C=C/c3ccc4c(c3)OCO4)=N/Nc3ccc([N+](=O)[O-])cc3[N+](=O)[O-])s2)c([N+](=O)[O-])c1",
    "TGI": "> 100 µM"
  }
]

---

# System: SNB-75 CNS
# Experiment: NCI tumour cell line growth inhibition, 48 h
# label = true (1) if TGI >= 40 µM else false (0)

[
  {
    "Compound": "O=c1cc(-c2ccc(O)cc2)oc2cc(O)cc(O)c12",
    "Tested target": "SNB-75 CNS",
    "Class label": "true (1)"
  },
  {
    "Compound": "CCN1C(=O)CS/C1=N\\NC(=O)CSc1nc2ccccc2c(=O)n1CC",
    "Tested target": "SNB-75 CNS",
    "Class label": "true (1)"
  },
  {
    "Compound": "CCc1nc(N)nc(N)c1C#CC(C)c1cc(-c2ccnc(C)c2)c2oc(C)nc2c1 (configuration not stated)",
    "Tested target": "SNB-75 CNS",
    "Class label": "false (0)"
  },
  {
    "Compound": "O=C1Cc2ccccc2CCc2ccsc21",
    "Tested target": "SNB-75 CNS",
    "Class label": "true (1)"
  },
  {
    "Compound": "CCOC(=O)/C=C1\\Oc2ccccc2C1(C)O (configuration not stated)",
    "Tested target": "SNB-75 CNS",
    "Class label": "true (1)"
  },
  {
    "Compound": "NS(=O)(=O)c1ccc(N2N=C(c3cccs3)CC2c2ccccc2O)cc1 (configuration not stated)",
    "Tested target": "SNB-75 CNS",
    "Class label": "false (0)"
  },
  {
    "Compound": "COC(=O)CCC(C)[C@H]1CCC2C3C(C[C@H](OC(C)=O)[C@@]21C)[C@@]1(C)CCC2(C[C@H]1C[C@H]3OC(C)=O)OOC1(CCCCC1)OO2 (some centres not stated)",
    "Tested target": "SNB-75 CNS",
    "Class label": "true (1)"
  },
  {
    "Compound": "c1ccc(/C(=N\\Nc2ccc3ccccc3n2)c2ccccn2)cc1",
    "Tested target": "SNB-75 CNS",
    "Class label": "true (1)"
  },
  {
    "Compound": "COc1ccc2c(c1OC)C(=O)O[C@@H]2[C@H]1c2c(c(Br)c3c(c2OC)OCO3)CCN1C",
    "Tested target": "SNB-75 CNS",
    "Class label": "true (1)"
  },
  {
    "Compound": "CCCc1cc(-c2ccc(-c3cc(CCC)c(C=O)[nH]3)s2)[nH]c1C=O",
    "Tested target": "SNB-75 CNS",
    "Class label": "true (1)"
  }
]
